tested on: Wolbachia pipientis; experiment: Anti-Wolbachia Cell-Based Screen; format: functional; parameters: scale not given: in the data most compounds retested in dose-response had high values; details: 5 µM
About 13,000 (27%) of roughly 48,000 compounds showed an effect of 50% or more. The list shows a part of the results.
Percent Effect reference
Please reply with the bare figure in % and do not write the unit itself.

Previously resolved entries follow.
{"molecule": "CCn1cc(CN2CCCn3nc(CNC(=O)C4CCC4)cc3C2)cn1", "measured.on": "Wolbachia pipientis", "Percent Effect [%]": 6.964}
{"molecule": "Cc1cc(CN2CCN(C(=O)NCc3ccc(C)s3)CC2)no1", "measured.on": "Wolbachia pipientis", "Percent Effect [%]": 0.1424}
{"molecule": "Cc1cccc(CN2CCc3[nH]nc(C(=O)N4CCOCC4)c3C2)n1", "measured.on": "Wolbachia pipientis", "Percent Effect [%]": 9.618}
{"molecule": "O=C(NCc1nc(NC2CCCC2)c2cc(Cl)ccc2n1)c1cncs1", "measured.on": "Wolbachia pipientis", "Percent Effect [%]": -2.993}
{"molecule": "O=C(NCc1cccs1)[C@H]1CC[C@@H]2[C@@H](CCN2Cc2ccoc2)O1.O=C(O)C(F)(F)F", "measured.on": "Wolbachia pipientis", "Percent Effect [%]": 94.68}
{"molecule": "CN(C)C(=O)Cc1ccc(-c2cccc3c2CCNC3)cc1", "measured.on": "Wolbachia pipientis", "Percent Effect [%]": 105}

Can you look up the measured Percent Effect of Nc1cc(C(=O)N2CCOC(Cc3cccc(C(F)(F)F)c3)C2)ccn1 (stereo unspecified) for me?
-0.1683

GET /values?readout=Percent Effect&item= `COCCN(CC(C)C)C(=O)c1cccc(Nc2cnccn2)c1`
186.1

Fill blank: measured Percent Effect of the molecule Cc1cc(CN2CCOC(C)(C(=O)N3CCOCC3)C2)no1 (stereo unspecified) is ____.
109.8

// lookup Percent Effect for `NC(=O)C1=NC2=NS(=O)(=O)c3ccccc3N2N1Cc1ccc(Cl)cc1`
1.46

Any idea what Percent Effect was measured for CCc1ccc(C2COCCN2C(=O)Nc2cccc(C(C)=O)c2)o1 (stereo unspecified) ?
-4.107

// query Percent Effect value for entry `Cn1cc(CN2CC[C@H]3O[C@H](C(=O)NCc4ccco4)CC[C@H]32)cn1.O=C(O)C(F)(F)F`
-21.14

Which Percent Effect reading was recorded for the molecule `O=C(C1CC=CC1)N1CCc2c(COCc3ccncc3)cncc2C1.O=C(O)C(F)(F)F.O=C(O)C(F)(F)F` ?
-4.118

Entry `Cc1ncc2c(c1CNC(=O)C1(c3ccc(F)cc3)CC1)CCNC2` has what Percent Effect?
13.15
